# Tested on: P12-Ichikawa
# assay-comment: cell viability relative to DMSO control; higher = less cytotoxic
# test-conditions: HPLM + 10% dialyzed FBS; 48 h; 0.19 µM
With a cut-off of 90%, any cell viability strictly below it is called criterion met; any cell viability meeting it or above is called criterion not met.

| compound | label-class |
| --- | --- |
| C[C@H]1COC/2=C1/C(=O)C(=O)C3=C4CCCC(C)(C)C4=CC=C23 | criterion not met |
| Nc1ncnc2c1nc(Cl)n2[C@@H]1O[C@H](CO)[C@@H](O)[C@H]1O | criterion not met |
| C[C@H]1O[C@H](C[C@H](O)[C@@H]1O)O[C@H]2[C@@H](O)C[C@@H](O[C@@H]2C)O[C@H]3[C@@H](O)C[C@@H](O[C@@H]3C)O[C@H]4CC[C@@]5(C)[C@H](CC[C@@H]6[C@@H]5C[C@@H](O)[C@]7(C)[C@H](CC[C@]67O)C/8=C/C(=O)OC8)C4 | criterion met |
| CC/1=C(\O)C(=O)\C=C2/C1=C/C=C3\[C@@]2(C)CC[C@@]4(C)[C@@H]5C[C@@](C)(CC[C@]5(C)CC[C@]34C)C(O)=O | criterion not met |
| CC1(C)C(N(O)C(=O)Nc2ccc(Cl)cc2)N(c2ccc(Cl)cc2)C(=O)N1CC(=O)N/N=C/C=C/c1ccc([N+](=O)[O-])o1 (configuration not stated) | criterion not met |
| Nc1nc(Cl)nc2c1ncn2[C@@H]1O[C@H](CO)[C@@H](O)[C@@H]1F | criterion met |
| O=C(O)CC/C=C\CC[C@@H]1[C@@H](N2CCCCC2)[C@@H](O)C[C@@H]1OCc1ccc(-c2ccccc2)cc1 | criterion not met |
| CNC(=O)Nc1ccc(-c2nc(N3CC4CCC(C3)O4)c3cnn(C4CCC5(CC4)OCCO5)c3n2)cc1 | criterion met |
| CC(C)(O)/C=C\C(=O)[C@](C)(O)[C@H]1[C@H](O)C[C@]2(C)[C@@H]3CC=C4[C@@H](C=C(O)C(=O)C4(C)C)[C@]3(C)C(=O)C[C@@]12C | criterion met |
| C#CCN[C@@H]1CCc2ccccc21.CS(=O)(=O)O | criterion not met |
| CC(C)Oc1ccc(C(=O)N[C@H](CNC(=O)CN(C)C)Cc2ccc(-c3cn4cccc([C@H](C)O)c4n3)cc2)cc1Cl | criterion not met |
